Biological target: High Affinity δ Receptors (Rattus norvegicus, UniProt P33533)
Construct: and rat lysed-P2 membranes as previously described; from tissue; host or cells: rat lysed-P2 membranes (brain)
Sequence (P33533 whole entry): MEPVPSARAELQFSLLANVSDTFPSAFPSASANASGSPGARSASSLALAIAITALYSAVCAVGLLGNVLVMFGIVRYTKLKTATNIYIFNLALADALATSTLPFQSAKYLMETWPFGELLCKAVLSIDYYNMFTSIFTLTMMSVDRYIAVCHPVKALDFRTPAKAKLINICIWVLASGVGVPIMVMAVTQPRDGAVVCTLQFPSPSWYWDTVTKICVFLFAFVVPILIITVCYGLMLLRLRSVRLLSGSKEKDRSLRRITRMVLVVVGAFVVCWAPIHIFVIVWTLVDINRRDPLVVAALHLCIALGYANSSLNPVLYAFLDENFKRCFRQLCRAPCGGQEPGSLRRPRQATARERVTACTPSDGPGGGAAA
Test: Displacement of [^3 H]DADLE, high affinity δ receptors, rat lysed-P2 membranes
Type: binding
Measured Quantity: pIC50
Scale: pIC50 equals -log10([C]), with [C] in mol/L.

INPUT: Tell me measured pIC50 for Oc1ccc2c3c1O[C@H]1[C@H](I)CC[C@@]4(O)[C@@H](C2)N(CC2CC2)CC[C@]314 [IOXY] please.
OUTPUT: 8.25

====

The molecules listed here are annotated with their IC50.
Biological target: κ1 receptor (Cavia porcellus)
Sequence (P41144 whole entry): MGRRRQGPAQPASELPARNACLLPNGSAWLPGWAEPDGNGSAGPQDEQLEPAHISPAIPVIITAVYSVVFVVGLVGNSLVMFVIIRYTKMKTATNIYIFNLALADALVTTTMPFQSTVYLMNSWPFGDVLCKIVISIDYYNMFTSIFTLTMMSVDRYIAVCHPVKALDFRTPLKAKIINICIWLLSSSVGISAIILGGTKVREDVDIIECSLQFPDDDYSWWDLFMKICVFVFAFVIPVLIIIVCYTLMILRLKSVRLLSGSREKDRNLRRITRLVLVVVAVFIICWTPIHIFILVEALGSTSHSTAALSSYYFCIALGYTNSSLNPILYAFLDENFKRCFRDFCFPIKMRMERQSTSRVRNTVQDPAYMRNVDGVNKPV
Please give a number only; it is taken to be in nM.

Known IC50 results, listed for orientation:
[[record]]
molecule = "Oc1ccc2c3c1O[C@H]1[C@H](I)CC[C@@]4(O)[C@@H](C2)N(CC2CC2)CC[C@]314"
result_number = 0.89

[[record]]
molecule = "Oc1ccc2c3c1O[C@H]1[C@@H](I)CC[C@@]4(O)[C@@H](C2)N(CC2CC2)CC[C@]314 [EpilOXY]"
result_number = 3.17


INPUT: For κ1 receptor (Cavia porcellus), give IC50 of the listed molecule: Oc1ccc2c3c1O[C@H]1[C@H](Br)CC[C@@]4(O)[C@@H](C2)N(CC2CC2)CC[C@]314 [CycloBROXY, reference compound]
OUTPUT: 0.7

====

Measured pIC50 of individual entries
Target: High Affinity δ Receptors (Rattus norvegicus, UniProt P33533)
Construct: and rat lysed-P2 membranes as previously described; from tissue; host or cells: rat lysed-P2 membranes (brain)
Assay: Displacement of [^3 H]DADLE, high affinity δ receptors, rat lysed-P2 membranes
Assay type: binding
Details: read-out: IC50
For clarity, pIC50 is expressed as the negative log10 of concentration in mol/L.

INPUT: Answer with the recorded pIC50 for the compound listed here: Oc1ccc2c3c1O[C@H]1[C@H](Br)CC[C@@]4(O)[C@@H](C2)N(CC2CC2)CC[C@]314 [CycloBROXY, reference compound]
OUTPUT: 8.37

INPUT: Quick one: give measured pIC50 for Oc1ccc2c3c1O[C@H]1[C@@H](I)CC[C@@]4(O)[C@@H](C2)N(CC2CC2)CC[C@]314 [EpilOXY]
OUTPUT: 7.00

====

IC50 overview
Biological target: Low Affinity δ Receptors
Assay: Displacement of [^3 H]DADLE, low affinity δ receptors, rat lysed-P2 membranes
Type: binding
Just the number in nM, nothing appended.

[[record]]
molecule = "Oc1ccc2c3c1O[C@H]1[C@@H](I)CC[C@@]4(O)[C@@H](C2)N(CC2CC2)CC[C@]314 [EpilOXY]"
result_number = 8.06


The record that follows has no IC50 shown yet.
INPUT: Specify IC50 for Oc1ccc2c3c1O[C@H]1[C@H](Br)CC[C@@]4(O)[C@@H](C2)N(CC2CC2)CC[C@]314 [CycloBROXY, reference compound] and stop.
OUTPUT: 5.77

====

Below are compounds with their pKi as measured on High Affinity δ Receptors (Rattus norvegicus).
# reply with the number alone; pKi is -log10 of concentration in mol/L

Guide cases for pKi, answers given:
[[record]]
compound = "Oc1ccc2c3c1O[C@H]1[C@H](Br)CC[C@@]4(O)[C@@H](C2)N(CC2CC2)CC[C@]314 [CycloBROXY, reference compound]"
measured_quantity = "pKi"
result_number = 8.71

[[record]]
compound = "Oc1ccc2c3c1O[C@H]1[C@H](I)CC[C@@]4(O)[C@@H](C2)N(CC2CC2)CC[C@]314"
measured_quantity = "pKi"
result_number = 7.93


Would you kindly look at the next entry?
INPUT: Using High Affinity δ Receptors (Rattus norvegicus) as the test system, report measured pKi of Oc1ccc2c3c1O[C@H]1[C@@H](I)CC[C@@]4(O)[C@@H](C2)N(CC2CC2)CC[C@]314 [EpilOXY] .
OUTPUT: 7.34
